Measured values drawn from patent US20180066015A1 for this set.

- Target or system: Trypsin
- Measurement notes: selectivity inhibition assay
No end group written: not given here. *: point of attachment. Kbt = ketobenzothiazole, c1ccc2sc(*)nc2c1
Would you kindly list Ki for each of these binders?
Numbers only, in pM.

Known Ki results, listed for orientation:
# Binder, Ki [pM]
measured = [
    ("Ac-KRLR-Kbt (not fully specified) [Ac-KRLR(SEQ ID NO: 8)-Kbt-5-COOH]", 1060),
    ("Ac-KRLR-{Kbt-Benzyl‑4‑COOMe} [Ac-KRLR(SEQ ID NO: 8)-kbt-Benzyl-4-COOMe]", 50),
]

Please look at the following binder next.
IN: Dear colleague, please send me the reported Ki for Ac-SKLR (not fully specified (C-terminus)) [Ac-SKLR(SEQ ID NO: 10)-Kbt-Phe-NH2] when you can.
OUT: 270
